// data source = patent US20230087118A1

Hi there, I'd appreciate the recorded IC50 for every entry that follows.
Target: IRAK4 (Homo sapiens, UniProt Q9NWZ3)
Sequence (Q9NWZ3 whole entry): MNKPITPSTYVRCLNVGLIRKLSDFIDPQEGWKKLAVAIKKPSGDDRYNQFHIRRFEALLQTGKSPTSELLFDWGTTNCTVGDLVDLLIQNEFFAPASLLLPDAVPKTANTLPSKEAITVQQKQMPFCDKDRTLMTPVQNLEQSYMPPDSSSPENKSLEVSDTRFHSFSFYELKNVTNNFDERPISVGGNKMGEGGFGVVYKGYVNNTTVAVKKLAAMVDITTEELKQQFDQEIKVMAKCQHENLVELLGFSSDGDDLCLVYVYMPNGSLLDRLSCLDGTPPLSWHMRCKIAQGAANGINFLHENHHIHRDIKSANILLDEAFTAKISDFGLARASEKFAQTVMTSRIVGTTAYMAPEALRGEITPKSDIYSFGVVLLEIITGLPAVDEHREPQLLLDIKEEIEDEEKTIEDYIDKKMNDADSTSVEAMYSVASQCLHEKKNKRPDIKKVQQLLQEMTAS
Assay: biochemical
Write down the value, and be sure its unit follows.

Input: I am curious: what IC50 value has been reported for CC12CC(c3cn4cc(C(=O)Nc5cccn(C(F)F)c5=O)c(OCC5CC5(F)F)cc4n3)(CO1)C2 (centres unmarked) ?
Output: 0.8 nM

Input: Next up: "CCOc1nc(C(=O)Nc2cccnc2OC(F)F)cn2cc(C34COC(C)(C3)C4)nc12"
Output: 1.6 nM

Input: Next up: "CC(C)Oc1cc2nc(C34COC(C)(C3)C4)c(F)n2cc1C(=O)Nc1cccc2ncnn12"
Output: 1.2 nM

Input: Next up: "CC(C)Oc1nc2nc(C34COC(C)(C3)C4)cn2cc1C(=O)Nc1cnn2cc(C(F)F)cnc12"
Output: 0.8 nM

Input: Next up: "CC(C)Oc1cc2nc(C34COC(C)(C3)C4)cn2cc1C(=O)Nc1ccnc2cccnc12"
Output: 1.6 nM
